test: hepatitis C replication reporter changes, two-sided – Huh7 cells, luciferase reporter, HCV replication inhibitor project, primary screen (AID 1109); conditions: Huh7 HCV replicon luciferase reporter, 48 h; higher = more signal;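 also: huh7 hepatoma cells harbouring a luciferase neomycin HCV replicon reporter; luciferase luminescence as measure of HCV replicon replication; test concentration not given here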
Outcome: YES for z-score of at least -2; NO for anything lower.

Q. Check if z-score >= -2 (inclusive). Item: COCCCNC(=O)[C@]1(CCS(=O)(=O)c2ccccc2)N=C(c2ccc(OCCCO)cc2)O[C@@H]1c1ccccc1
A. YES

Q. Check if z-score >= -2 (inclusive). Item: C=C(C(=O)CC[C@H](OC(=O)c1cccnc1)c1ccc(OCCO)cc1)C(C)C
A. NO

Q. Check if z-score >= -2 (inclusive). Item: CC(C)C(CO)N1C(=O)[C@@H]2[C@H]3C(=O)OCC=C[C@H]3OC23C=CCN(Cn2nnc4ccccc42)C(=O)[C@@H]13 (stereo partly specified)
A. YES

Q. Check if z-score >= -2 (inclusive). Item: CCOC(=O)C1=CCC(c2cccc(Cl)c2)O1 (stereo unspecified)
A. YES

Q. Check if z-score >= -2 (inclusive). Item: CC(C)(C)N1CC=CC23O[C@@H]4C=CCCOC(=O)C4[C@H]2C(=O)N(CCCO)[C@@H]3C1=O (stereo partly specified)
A. YES

Q. Check if z-score >= -2 (inclusive). Item: CO[C@H]1O[C@H](CO)[C@@H](OC(=O)c2ccc(Br)cc2)[C@@H]2OC(=O)[C@H](Cc3cccc(Br)c3)C/C=C/C[C@@H](Cc3cccc(Br)c3)C(=O)O[C@@H]12
A. NO

----------
So I've got a bunch of compounds here, and I need their composite z-score values.
test system: Lefty1; experiment: Lefty1 protein binding to printed compounds – biochemical, small-molecule microarray, 635/667 nm fluorescence, primary screen (AID 1139); details: fluorescence 635/667, higher = more signal

Q. Param item = O=C(O)[C@@]1(Cc2ccccc2)COC(c2ccc(OCCCO)cc2)=N1 ; retrieve measured composite z-score.
A. -1.18

Q. Param item = COCCCNC(=O)[C@@H]1c2ccccc2C(=O)N(c2ccc(C)cn2)[C@H]1c1ccc(CO)cc1 ; retrieve measured composite z-score.
A. -1.03

Q. Param item = CCCc1cc2c(n1Cc1ccc(OC)cc1)C(C)C1CN(C(=O)c3ccccc3)C(C)(C(=O)OC)C21 (stereo unspecified) ; retrieve measured composite z-score.
A. -0.515

Q. Param item = COC(=O)[C@@]1(Cc2ccc(OC)cc2)[C@H]2c3cc(C(=O)N4CCCC4)n(CCF)c3C[C@H]2CN1C(=O)c1ccccc1 ; retrieve measured composite z-score.
A. -0.3

Q. Param item = O=C1NC(=O)C2C1C=CC(C(O)c1ccc3c(c1)OCO3)N2Nc1ccc(Cl)cc1Cl (stereo unspecified) ; retrieve measured composite z-score.
A. 0.194

Q. Param item = Cc1ccc(F)cc1S(=O)(=O)N[C@@H]1CCN(C(=O)c2ccc(OC(C)C)cc2)C1 ; retrieve measured composite z-score.
A. 0.913

Q. Param item = O=C(CS)NCCCCCNC(=O)[C@@H]1C[C@@H]2C(=O)N3CCC[C@H]3C(=O)N2[C@@H]1c1ccc(O)cc1 ; retrieve measured composite z-score.
A. -0.0581

Q. Param item = COCCCNC(=O)[C@@H]1c2ccccc2C(=O)N(Cc2cc(F)cc(C(F)(F)F)c2)[C@H]1c1ccc(CO)cc1 ; retrieve measured composite z-score.
A. -0.584

Q. Param item = [N-]=[N+]=NCc1ccccc1[C@H]1OC(c2ccc(OCCCO)cc2)=N[C@@]1(Cc1ccccc1N=[N+]=[N-])C(=O)N1CCCCC1 ; retrieve measured composite z-score.
A. 0.68

Q. Param item = COCCOC(=O)N1C(=O)[C@@]2(c3cc(C#CCNC(N)=O)ccc31)[C@H](c1ccc(OCCO)cc1)N1[C@H](c3ccccc3)[C@H](c3ccccc3)OC(=O)[C@H]1[C@@H]2C(=O)N1CCN(c2ncccn2)CC1 ; retrieve measured composite z-score.
A. 0.411

Q. Param item = CC(C)C[C@@H]1NC(=O)[C@@H]2C[C@H](C(=O)NCc3ccc(F)cc3)[C@H](c3ccc(O)cc3)N2C1=O ; retrieve measured composite z-score.
A. 0.689

----------
system: Inhibin beta A chain (activin A); assay: small molecules binding activin A – biochemical, small-molecule microarray, 635 nm fluorescence scan, primary screen (AID 1107); details: INHBA, higher = more signal;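 also: mouse activin A protein probed at 4.33 µg/mL on printed slides; score merges bound-protein fluorescence near 667 nm with spot signal-to-noise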
Endpoint: composite z-score
Answer with a number only.

Q. Lab note: need composite z-score with Inhibin beta A chain (activin A) for entry Cc1ccc(S[C@]2(C(=O)NCCN3CCOCC3)CC(=O)N(C3Cc4ccccc4C3)[C@@H]2c2ccc(CO)cc2)cc1 , please look it up.
A. 0.345

Q. Lab note: need composite z-score with Inhibin beta A chain (activin A) for entry C=C(/C(=C/C[C@@H](OC(C)=O)c1ccccc1OCCO)c1cnc2ccccc2c1)C(C)C , please look it up.
A. 1.7

Q. Lab note: need composite z-score with Inhibin beta A chain (activin A) for entry C=CCOC(=O)[C@@H]1[C@H]2C(=O)O[C@H](c3ccccc3)[C@H](c3ccccc3)N2[C@H](c2ccc(OCCOC(=O)[C@@H]3C[C@@H]4C(=O)N5CCC[C@H]5C(=O)N4[C@@H]3c3cccc(OCCO)c3)cc2)[C@@]12C(=O)Nc1ccc(I)cc12 , please look it up.
A. 0.607

Q. Lab note: need composite z-score with Inhibin beta A chain (activin A) for entry CC(C)[Si](C#C[Si](C(C)C)(C(C)C)C(C)C)(O[C@H](C)c1cn(Cc2cccc(Cl)c2)nn1)C(C)C , please look it up.
A. -0.33

Q. Lab note: need composite z-score with Inhibin beta A chain (activin A) for entry CN(C)CCCCCCNC(=O)[C@@H]1C[C@@H]2C(=O)NCC(=O)N2[C@@H]1c1ccc(O)cc1 , please look it up.
A. 0.678

Q. Lab note: need composite z-score with Inhibin beta A chain (activin A) for entry COC(=O)[C@@]1(Cc2ccccc2)[C@H]2c3cc(C(=O)N4CCCC4)n(Cc4ccc(OC(F)(F)F)cc4)c3C[C@H]2CN1C(=O)c1ccccc1 , please look it up.
A. 1.08

----------
test: hepatitis C replication reporter changes, two-sided – Huh7 cells, luciferase reporter, HCV replication inhibitor project, primary screen (AID 1109); conditions: Huh7 HCV replicon luciferase reporter, 48 h; higher = more signal;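 also: huh7 hepatoma cells harbouring a luciferase neomycin HCV replicon reporter; luciferase luminescence as measure of HCV replicon replication; test concentration not given here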
Endpoint: z-score
Answer with a number only.

Q. Param item = CCCCCCC#C[Si](O[C@H](c1ccccc1)c1cn(Cc2cccc(Cl)c2)nn1)(C(C)C)C(C)C ; retrieve measured z-score.
A. -0.775

Q. Param item = C=C(COC)/C(=C/C[C@@H](OC(=O)c1ccncc1)c1cccc(OCCO)c1)c1cc(C(=O)OC)ccc1OC ; retrieve measured z-score.
A. -4.4

Q. Param item = COc1ccc([Si](C)(C)[C@@H]2[C@@H](CCO)O[C@]3(C(=O)N(Cc4cccc(N5C(=O)COc6ccccc65)c4)c4ccccc43)[C@H]2C)cc1 ; retrieve measured z-score.
A. -4.83

Q. Param item = C[N+](C)(C)CCCCCCNC(=O)[C@H]1C[C@H]2C(=O)N3CCC[C@H]3C(=O)N2[C@H]1c1cccc(OCCO)c1 ; retrieve measured z-score.
A. 0.609

Q. Param item = CC(C)=CCCC(C)=CC(O)C1C=CC2C(=O)N(c3ccccc3)C(=O)C2N1Nc1ccc([N+](=O)[O-])cc1 (stereo unspecified) ; retrieve measured z-score.
A. -0.135

Q. Param item = COC(=O)[C@@]1(Cc2ccc(OC)cc2)[C@H]2c3cc(C(=O)N(C)C)n(Cc4cc(F)c(F)c(F)c4)c3C[C@H]2CN1C(=O)c1ccccc1 ; retrieve measured z-score.
A. -2.04

----------
assay: plasmodial surface anion channel blockers, osmotic lysis – cell-based, P. falciparum Indochina, OD700, 2 h, primary screen (AID 1155);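 also: lysis reports solute entry through the parasite surface anion channel PSAC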; settings: P. falciparum Indochina infected erythrocytes, called active from +8 up or from −8 down
Active and inactive are the calls of the source.
Select the matching outcome among true (active), false (inactive)

Q. Name the outcome recorded for CCC[C@@H]1C[C@@]1(CCC)[C@@H](NC(=O)c1ccco1)c1ccc(Cl)cc1 in the assay.
A. false

Q. Name the outcome recorded for C=C[C@H](C)[C@H](OC(=O)Nc1ccc(SC)cc1)c1ccc(O)c2ccccc12 in the assay.
A. true

Q. Name the outcome recorded for COc1ccc([Si](C)(C)[C@@H]2[C@@H](CCO)O[C@]3(C(=O)N(Cc4ccccc4)c4ccc(N5C(=O)COc6ccccc65)cc43)[C@H]2C)cc1 in the assay.
A. false

Q. Name the outcome recorded for COCCOC(=O)N1C(=O)[C@@]2(c3cc(C#CCCO)ccc31)[C@H](C(=O)N1CCc3cc(OC)c(OC)cc3C1)[C@H]1C(=O)O[C@H](c3ccccc3)[C@H](c3ccccc3)N1[C@@H]2c1ccc(OCCO)cc1 in the assay.
A. false

Q. Name the outcome recorded for C=CCOC(=O)[C@H]1[C@@H]2C(=O)O[C@@H](c3ccccc3)[C@@H](c3ccccc3)N2[C@@H](c2ccc(OCCOC(=O)[C@H]3C[C@H]4C(=O)N[C@@H](CCCCN(C)C)C(=O)N4[C@H]3c3ccc(O)cc3)cc2)[C@]12C(=O)Nc1ccccc12 in the assay.
A. false

Q. Name the outcome recorded for CCCN1C(=O)[C@@]2(Cc3ccccc3)N=C(c3ccc(OCCCO)cc3)O[C@H]2c2ccccc21 in the assay.
A. true

Q. Name the outcome recorded for COC(=O)[C@@]1(Cc2ccc(OC)cc2)[C@H]2c3cc(C(=O)N(C)C)n(Cc4cc(F)c(F)c(F)c4)c3C[C@H]2CN1C(=O)c1ccccc1 in the assay.
A. false

Q. Name the outcome recorded for COc1cc(C(O)C2C=CC3C(=O)N(C)C(=O)C3N2NC(=O)OC(C)(C)C)cc(OC)c1OC (stereo not given) in the assay.
A. false

Q. Name the outcome recorded for COCCCNC(=O)[C@@]1(Cc2ccccc2CN=[N+]=[N-])N=C(c2ccc(OCCCO)cc2)O[C@H]1c1ccccc1N=[N+]=[N-] in the assay.
A. true

Q. Name the outcome recorded for COC(=O)[C@@]1(Cc2ccc(OC)cc2)[C@H]2c3cc(C(=O)N(C)C)n(CCF)c3C[C@H]2CN1C(=O)c1ccccc1 in the assay.
A. false

Q. Name the outcome recorded for COC(=O)[C@@]1(Cc2ccc(F)cc2)[C@H]2c3cc(C(=O)N(C)C)n(Cc4ccc(C)c(F)c4F)c3C[C@H]2CN1C(=O)c1ccccc1 in the assay.
A. false

Q. Name the outcome recorded for COc1ccc(CCNC(=O)[C@@H]2c3ccccc3C(=O)N(Cc3ccccc3)[C@H]2c2ccc(CO)cc2)cc1 in the assay.
A. false

Q. Name the outcome recorded for CC(=O)NCCCC[C@@H]1NC(=O)[C@@H]2C[C@H](C(=O)NCCCC[N+](C)(C)C)[C@H](c3cccc(OCCO)c3)N2C1=O in the assay.
A. false

Q. Name the outcome recorded for NCCCCCCNC(=O)[C@H]1C[C@H]2C(=O)N3CCC[C@H]3C(=O)N2[C@H]1c1ccc(O)cc1 in the assay.
A. false

Q. Name the outcome recorded for COC(=O)[C@@]1(Cc2ccc(F)cc2)[C@H]2c3cc(C(=O)N4CCCC4)n(Cc4ccccc4)c3C[C@H]2CN1C(=O)c1ccccc1 in the assay.
A. false

Q. Name the outcome recorded for COC(=O)[C@@]1(Cc2ccc(OC)cc2)[C@H]2c3cc(C(=O)N4CCCC4)n(CCc4ccc(O)c(OC)c4)c3C[C@H]2CN1C(=O)c1ccccc1 in the assay.
A. false

Q. Name the outcome recorded for COCCOC(=O)N1C(=O)[C@@]2(c3cc(C#Cc4ccc(OC)cc4)ccc31)[C@H](c1ccc(OCCO)cc1)N1[C@H](c3ccccc3)[C@H](c3ccccc3)OC(=O)[C@H]1[C@@H]2C(N)=O in the assay.
A. false

Q. Name the outcome recorded for CC(C)(C)N1CC=CC23O[C@@H]4C=CCCOC(=O)C4[C@H]2C(=O)N(CCCO)[C@@H]3C1=O (stereo not given in full) in the assay.
A. false

Q. Name the outcome recorded for C=CCNC(=O)[C@H]1[C@@H]2C(=O)O[C@@H](c3ccccc3)[C@@H](c3ccccc3)N2[C@@H](c2ccc(O)cc2)[C@]12C(=O)N(C(=O)OCCOC)c1ccc(C#CC3(O)CCCCCC3)cc12 in the assay.
A. false

Q. Name the outcome recorded for CC1CC/C=C\[C@H]2OC34C=CCN(c5ccc(Cl)cc5)C(=O)[C@H]3N(C(CO)C(C)C)C(=O)[C@]4(C)C2C(=O)O1 (stereo not given in full) in the assay.
A. false
